The reported numbers originate from patent US7732434B2.

Target: BACE1 enzyme (Homo sapiens)
Construct: The HEK293-9B.A1 cell line, which overexpresses the BACE1 enzyme, was derived from HEK293 cells; endogenous in cells; washed 48,000 x g pellet of cell homogenate
Sequence (P56817 46-501): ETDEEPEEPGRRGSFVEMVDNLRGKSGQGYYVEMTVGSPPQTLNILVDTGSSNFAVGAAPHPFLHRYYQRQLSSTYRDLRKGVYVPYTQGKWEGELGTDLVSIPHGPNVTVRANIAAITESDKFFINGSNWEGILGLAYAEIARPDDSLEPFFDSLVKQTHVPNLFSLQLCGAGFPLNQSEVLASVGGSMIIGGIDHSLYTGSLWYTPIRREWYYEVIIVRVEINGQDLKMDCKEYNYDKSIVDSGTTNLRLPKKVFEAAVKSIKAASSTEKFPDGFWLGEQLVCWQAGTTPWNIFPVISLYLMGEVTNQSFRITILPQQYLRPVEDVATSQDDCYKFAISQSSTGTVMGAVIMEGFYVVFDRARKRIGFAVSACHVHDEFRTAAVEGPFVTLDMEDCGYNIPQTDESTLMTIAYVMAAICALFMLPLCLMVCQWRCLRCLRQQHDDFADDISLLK
Test: Radioligand displacement assay with a radiolabeled BACE inhibitor, HEK293-9B.A1 cell homogenate
Conditions: displacement of 1 nM radioligand, HEK293-9B.A1 homogenate, pH 5.0, 1.5 hr at 25° C.; read-out: Activity Rating (activity based on IC50 values)
pIC50: −log10 of the molar value.
pIC50 listing for selected compounds.
observable: pIC50

[[record]]
compound = "Cc1onc2c1C(=O)/N=C(\\N)NCc1ccc(cc1)NC(=O)CNCCC/C=C\\COc1ccc-2cc1 [Example 10]"
test_system = "BACE1 enzyme (Homo sapiens)"
measured_result = "> 8.30"

[[record]]
compound = "Cc1snc2c1C(=O)/N=C(\\N)NCc1cc(Cl)c(c(Cl)c1)NC(=O)CNCCCC=CCOc1ccc-2cc1 [Example 4]"
test_system = "BACE1 enzyme (Homo sapiens)"
measured_result = "7.30 to 8.30"

[[record]]
compound = "Cc1snc2c1C(=O)/N=C(\\N)NCc1cc(Cl)c(c(Cl)c1)NC(=O)CNCCCCCOc1ccc-2cc1 [Example 9]"
test_system = "BACE1 enzyme (Homo sapiens)"
measured_result = "> 8.30"

[[record]]
compound = "Cc1onc2c1C(=O)/N=C(\\N)NCc1cc(Cl)c(c(Cl)c1)NC(=O)CNCC/C=C/COc1ccc-2cc1 [Example 2]"
test_system = "BACE1 enzyme (Homo sapiens)"
measured_result = "< 7.30"

[[record]]
compound = "Cc1snc2c1C(=O)/N=C(\\N)NCc1cc(Cl)c(c(Cl)c1)NC(=O)CNCCCCCCOc1ccc-2cc1 [Example 5]"
test_system = "BACE1 enzyme (Homo sapiens)"
measured_result = "7.30 to 8.30"

[[record]]
compound = "Cc1onc2c1C(=O)N=C(N)NCc1ccc(c(Cl)c1)NC(=O)CNCCC/C=C\\COc1ccc-2cc1 [Example 11]"
test_system = "BACE1 enzyme (Homo sapiens)"
measured_result = "> 8.30"

[[record]]
compound = "Cc1onc2c1C(=O)/N=C(\\N)NCc1cc(Cl)c(c(Cl)c1)NC(=O)CNCCCC/C=C\\COc1ccc-2cc1 [Example 7]"
test_system = "BACE1 enzyme (Homo sapiens)"
measured_result = "> 8.30"

[[record]]
compound = "Cc1snc2c1C(=O)/N=C(\\N)NCc1cc(Cl)c(c(Cl)c1)NC(=O)CNCC/C=C\\COc1ccc-2cc1 [Example 8]"
test_system = "BACE1 enzyme (Homo sapiens)"
measured_result = "> 8.30"

[[record]]
compound = "Cc1snc2c1C(=O)/N=C(\\N)NCc1cc(Cl)c(c(Cl)c1)NC(=O)CN(Cc1ccccc1)CCCC=CCOc1ccc-2cc1 [Example 6]"
test_system = "BACE1 enzyme (Homo sapiens)"
measured_result = "7.30 to 8.30"

[[record]]
compound = "Cc1onc2c1C(=O)/N=C(\\N)NCc1cc(Cl)c(c(Cl)c1)NC(=O)CNCC=CCOc1ccc-2cc1 [Example 1]"
test_system = "BACE1 enzyme (Homo sapiens)"
measured_result = "< 7.30"

[[record]]
compound = "Cc1onc2c1C(=O)/N=C(\\N)NCc1cc(Cl)c(c(Cl)c1)NC(=O)CNCCC/C=C\\COc1ccc-2cc1 [Example 3]"
test_system = "BACE1 enzyme (Homo sapiens)"
measured_result = "7.30 to 8.30"

